Values were extracted from ChEMBL document CHEMBL4028854.

Test system: Thoracic aorta
protocol-description: Vasorelaxing effect in endothelium-denuded Wistar rat thoracic aorta ring assessed as reduction in KCl-induced contractile tone at 1 mM relative to KCl
Assay type: functional
Emax at 1000 µM for assorted compounds
quantity-name: Emax at 1000 µM

compound	quantity-name	result
N=C(SCc1ccccc1)c1cccs1	Emax at 1000 µM	89.9%
C=CCSSCC=C [DIALLYLDISULFIDE]	Emax at 1000 µM	41.7%
N=C(SCc1ccc2ccccc2c1)c1cccs1	Emax at 1000 µM	20.4%
COc1ccc(C(=S)NCc2ccccc2)cc1	Emax at 1000 µM	96.8%
N=C(Sc1ccccc1)c1cccs1	Emax at 1000 µM	99.7%
Oc1ccc(C(=S)NCc2ccccc2)cc1	Emax at 1000 µM	88.2%
S=C(NCc1ccccc1)c1ccccc1	Emax at 1000 µM	92.7%
